Measured AUC(0-inf), listed per entry for reference.
EXPERIMENTAL PROTOCOL: In vivo pharmacokinetic and bioavailability experiments of rats
Parameters: species or system SD rats
CONDITION INFO: Sprague-Dawley, rat, plasma; SD rats, Po, 25 mg/kg single dose
OBSERVABLE: AUC(0-inf) (ng·h/mL)

[[record]]
molecular_string = "CCc1ccc2c(c1)c(=O)c(C(=O)Nc1ccc(Oc3ncnc4cc(OCCCN5CCN(C)CC5)c(OC)cc34)c(F)c1)c(C)n2C"
observable = "AUC(0-inf)"
result = 31300

[[record]]
molecular_string = "CCc1ccc2c(c1)c(=O)c(C(=O)Nc1ccc(Oc3ncnc4cc(OCCCN5CCOCC5)c(OC)cc34)c(F)c1)c(C)n2C"
observable = "AUC(0-inf)"
result = 118000

[[record]]
molecular_string = "COc1cc2ncnc(Oc3ccc(NC(=O)c4cn(-c5ccc(F)cc5)c5cc(N6CCNCC6)c(F)cc5c4=O)cc3F)c2cc1OC"
observable = "AUC(0-inf)"
result = 151


---

Measured inhibition at 1 µM, listed per entry for reference.
TARGET: FLT-3 kinase domain recombinant protein (Homo sapiens, UniProt P36888)
Construct: 50 μL FLT-3 kinase domain recombinant protein diluted with reaction buffer to initiate the reaction
Sequence (P36888 610-943 limits assumed): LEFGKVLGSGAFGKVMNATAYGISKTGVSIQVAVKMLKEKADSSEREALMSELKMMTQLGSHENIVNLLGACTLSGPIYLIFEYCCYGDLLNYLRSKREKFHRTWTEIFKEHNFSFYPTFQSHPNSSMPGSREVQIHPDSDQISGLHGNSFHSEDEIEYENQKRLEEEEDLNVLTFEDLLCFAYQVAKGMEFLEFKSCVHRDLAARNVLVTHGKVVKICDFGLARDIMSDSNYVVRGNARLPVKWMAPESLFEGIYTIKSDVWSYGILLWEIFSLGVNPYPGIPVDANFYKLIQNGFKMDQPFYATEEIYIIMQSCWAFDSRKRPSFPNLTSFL
EXPERIMENTAL PROTOCOL: Inhibition rate on FLT3 kinase (ELISA)
Format: biochemical
CONDITION INFO: compound 1000 nM; two values per compound; read-out: Inhibition rate (%) against receptor tyrosine kinase FLT-3
OBSERVABLE: inhibition at 1 µM (%)

[[record]]
molecular_string = "CCc1ccc2c(c1)c(=O)c(C(=O)Nc1ccc(Oc3ncnc4cc(OC)c(OC)cc34)c(F)c1)c(C)n2C"
target = "FLT-3 kinase domain recombinant protein (Homo sapiens, UniProt P36888)"
observable = "inhibition at 1 µM"
result = 84.7

[[record]]
molecular_string = "CCc1ccc2c(c1)c(=O)c(C(=O)Nc1ccc(Oc3ncnc4[nH]cc(-c5ccc(OC)cc5)c34)c(F)c1)c(C)n2C"
target = "FLT-3 kinase domain recombinant protein (Homo sapiens, UniProt P36888)"
observable = "inhibition at 1 µM"
result = 100

[[record]]
molecular_string = "CCc1ccc2c(c1)c(=O)c(C(=O)Nc1ccc(Oc3ncnc4cc(OCCCN5CCOCC5)c(OC)cc34)c(F)c1)c(C)n2C"
target = "FLT-3 kinase domain recombinant protein (Homo sapiens, UniProt P36888)"
observable = "inhibition at 1 µM"
result = 104

[[record]]
molecular_string = "Cc1c(C(=O)Nc2ccc(Oc3ncnc4[nH]cc(-c5ccccc5)c34)c(F)c2)c(=O)c2cc(F)ccc2n1C"
target = "FLT-3 kinase domain recombinant protein (Homo sapiens, UniProt P36888)"
observable = "inhibition at 1 µM"
result = 84

